- Test system: primary vascular smooth muscle (VSM) cells derived from rat aorta
- Procedure Text: Cell viability (XTT) of VSM cells
- Assay type: cell-based
- Applied Conditions: 24 h incubation with compound, then XTT 4 h; read-out: ID50 VSM cells
- Method: Three main cell types of the cardiovascular system were evaluated: primary cardiomyocytes derived from neonatal rats primary vascular smooth muscle (VSM) cells derived from rat aorta and human umbilical vein endothelial cells. Furthermore, human colon carcinoma HT29 cells and BL6-8 melanoma cells were evaluated as representative cancer cells. […] The viability of the cells was measured as described above. […]
Provide the recorded IC50 for the entries that follow.
One number for each entry, in nM.

                                   molecule  quantity_name  assay_result
0  Cc1ccc(NC2=C(N3CCCC3)C(=O)c3ccccc3C2=O)cc1 [TW85]           IC50          3600

As a next step, examine the molecule that follows.
// recorded IC50 for O=C1C(Nc2ccc(O)cc2)=C(N2CCCC2)C(=O)c2ccccc21 [TW96] : 200
